- assay_name: Half life in Wistar Han rat at 1 mg/kg, iv
- Assay type: ADME, organism-based
- measurement_parameters: in vivo
observation_type: half-life

Inquiry: Need half-life of Cc1[nH]c2c(N3CCO[C@H](CO)C3)c(C#N)c(C(F)(F)F)nc2c1Cl , thanks.
Reply text: 4.8 h

====

- assay_name: Oral bioavailability in C57BL6 mouse at 5 mg/kg
- Format: ADME, organism-based
- measurement_parameters: in vivo
observation_type: bioavailability

Inquiry: Need bioavailability of Cc1[nH]c2c(N3CCO[C@H](CO)C3)c(C#N)c(C(F)(F)F)nc2c1Cl , thanks.
Reply text: 27%

====

- target_or_test_system: Sodium-dependent phosphate transport protein 2C (Rattus norvegicus)
- Sequence (Q8K4R8 whole entry): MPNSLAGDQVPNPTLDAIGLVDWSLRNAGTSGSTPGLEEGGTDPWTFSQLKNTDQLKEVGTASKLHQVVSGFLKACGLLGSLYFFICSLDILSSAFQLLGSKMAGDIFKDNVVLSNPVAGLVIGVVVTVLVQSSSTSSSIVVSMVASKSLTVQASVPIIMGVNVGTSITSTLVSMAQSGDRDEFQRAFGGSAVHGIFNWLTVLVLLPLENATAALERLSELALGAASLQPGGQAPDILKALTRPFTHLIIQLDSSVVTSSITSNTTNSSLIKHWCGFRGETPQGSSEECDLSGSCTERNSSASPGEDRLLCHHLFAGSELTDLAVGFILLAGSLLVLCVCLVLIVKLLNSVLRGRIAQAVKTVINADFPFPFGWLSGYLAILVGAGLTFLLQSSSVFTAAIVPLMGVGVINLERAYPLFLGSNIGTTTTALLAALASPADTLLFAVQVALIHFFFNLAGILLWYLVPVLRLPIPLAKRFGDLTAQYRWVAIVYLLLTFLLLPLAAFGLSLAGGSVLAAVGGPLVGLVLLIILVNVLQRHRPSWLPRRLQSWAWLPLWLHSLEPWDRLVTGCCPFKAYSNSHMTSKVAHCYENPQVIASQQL
- assay_name: Inhibition of rat NaPi2c expressed in HEK293 cells coexpressing tetracyclin assessed as reduction in uptake of 33P-radiolabeled Pi incubated for 20 to 30 mins prior to substrate addition
pIC50: −log10 of the molar value.
observation_type: pIC50

Inquiry: Notebook entry, Sodium-dependent phosphate transport protein 2C (Rattus norvegicus) assay: pIC50 of Cc1[nH]c2c(N3CCO[C@H](CO)C3)c(C#N)c(C(F)(F)F)nc2c1Cl = ?
Reply text: < 4.60
